// data source = ChEMBL document CHEMBL3272177

# Species: Rattus norvegicus
# Assay Summary: Reduction in triglyceride level in CFE rat […] in serum at 0.1% of diet treated through diet for 6 days relative to control
# Type: functional
# Design: scale not given: the % may be the effect or the level left
Endpoint: Activity
The reply should consist of the numeric value with the unit placed after it.

In: Assign Activity to the following record: CCCCCCCCCCCCC/C=C\COc1ccc(C(=O)OC)cc1
Out: 89%

In: Assign Activity to the following record: CCCCCCCCCCCC(CCOc1ccc(C(=O)OC)cc1)OS(=O)(=O)c1ccc(C)cc1 (configuration not stated)
Out: 86%

In: Assign Activity to the following record: CCCCCCCCCCCCC/C=C/COc1ccc(C(=O)O)cc1
Out: 46%

In: Assign Activity to the following record: CCCCCCCCCCCCC(CCC)Oc1ccc(C(=O)O)cc1 (configuration not stated)
Out: 53%

In: Assign Activity to the following record: O=C(O)c1ccc(OC23CC4CC(CC(C4)C2)C3)cc1
Out: 85%

In: Assign Activity to the following record: O=C(O)c1ccc(OC2CCCCCCCCCCC2)cc1
Out: 87%

In: Assign Activity to the following record: CCCCCCCCCC/C=C/CCCOc1ccc(C(=O)O)cc1
Out: 92%

In: Assign Activity to the following record: O=C(O)c1ccc(OC2C3CC4CC(C3)CC2C4)cc1 (configuration not stated)
Out: 88%

In: Assign Activity to the following record: C=CCCCCCCCCCOc1ccc(C(=O)OC)cc1
Out: 58%

In: Assign Activity to the following record: O=C(O)c1ccc(OCCCCCCCCCCCCS)cc1
Out: 26%

In: Assign Activity to the following record: CCCCCCCCCCCCCCC(C)Oc1ccc(C(=O)O)cc1 (configuration not stated)
Out: 70%

In: Assign Activity to the following record: CCCCCCCCCCCC(C)(C)Oc1ccc(C(=O)O)cc1
Out: 63%

In: Assign Activity to the following record: CCCCNC(=O)CCCCCCCCCCOc1ccc(C(=O)OC)cc1
Out: 81%

In: Assign Activity to the following record: CCS(=O)(=O)CCCCCCCCCCCCCCCCOc1ccc(C(=O)O)cc1
Out: 60%

In: Assign Activity to the following record: CCCCCCCCCCCCCCCCOc1ccc(C(=O)O)cc1Cl
Out: 75%

In: Assign Activity to the following record: COC(=O)c1ccc(OCCCCCCCCCCCCCCCO)cc1
Out: 89%

In: Assign Activity to the following record: CCCSCCCCCCCCCCCOc1ccc(C(=O)O)cc1
Out: 42%

In: Assign Activity to the following record: CCCCCCCCCCCC(O)CCOc1ccc(C(=O)O)cc1 (configuration not stated)
Out: 53%

In: Assign Activity to the following record: COC(=O)c1ccc(OCC(=O)C23CC4CC(CC(C4)C2)C3)cc1
Out: 100%

In: Assign Activity to the following record: CCCCCCCCCCCCCC#CCOc1ccc(C(=O)OC)cc1
Out: 57%

In: Assign Activity to the following record: CCCCCCCCCCCCCCCCOc1c(I)cc(C(=O)O)cc1I
Out: 105%

In: Assign Activity to the following record: CC(C)CCCC(C)CCCC(C)CCOc1ccc(C(=O)O)cc1 (configuration not stated)
Out: 26%

In: Assign Activity to the following record: CCCCNCCCCCCCCCCCOc1ccc(C(=O)O)cc1
Out: 100%

In: Assign Activity to the following record: CC[S+]([O-])CCCCCCCCCCCCCCCCOc1ccc(C(=O)O)cc1 (configuration not stated)
Out: 55%

In: Assign Activity to the following record: O=C(O)c1ccc(OCCCCCCCCCCCO)cc1
Out: 81%

In: Assign Activity to the following record: CCCCCCCCCCCCC(C)(C)Oc1ccc(C(=O)O)cc1
Out: 87%

In: Assign Activity to the following record: CCCCCCCCCCCCCC#CCOc1ccc(C(=O)O)cc1
Out: 75%

In: Assign Activity to the following record: O=C(O)c1ccc(OC(=O)C2C3CC4CC(C3)CC2C4)cc1 (configuration not stated)
Out: 113%

In: Assign Activity to the following record: COC(=O)c1ccc(OCCCCCCCCCCCSC#N)cc1
Out: 145%

In: Assign Activity to the following record: CCCCCCCCCCCC(S)CCOc1ccc(C(=O)O)cc1 (configuration not stated)
Out: 47%

In: Assign Activity to the following record: CCCCCCCCCCCC(=O)CCOc1ccc(C(=O)O)cc1
Out: 74%

In: Assign Activity to the following record: CCCCCCCCCCCC(CCOc1ccc(C(=O)O)cc1)SCc1ccccc1 (configuration not stated)
Out: 69%

In: Assign Activity to the following record: CCCCCCCCCCCC(Cl)CCOc1ccc(C(=O)OC)cc1 (configuration not stated)
Out: 45%

In: Assign Activity to the following record: O=C(O)c1ccc(OCCCCCCCCCCCCCCCS)cc1
Out: 40%

In: Assign Activity to the following record: CCCCCCCCCCCCCCC(C)(CC)Oc1ccc(C(=O)O)cc1 (configuration not stated)
Out: 94%

In: Assign Activity to the following record: O=C(O)CCCCCCCCCCOc1ccc(C(=O)O)cc1
Out: 100%

In: Assign Activity to the following record: CCCCNC(=O)CCCCCCCCCCOc1ccc(C(=O)O)cc1
Out: 85%

In: Assign Activity to the following record: O=C(O)c1ccc(OCCCCCCCCCCCS)cc1
Out: 44%

In: Assign Activity to the following record: CCCCCCCC/C=C/CCCCCCCCOc1ccc(C(=O)OC)cc1
Out: 46%

In: Assign Activity to the following record: CCCCCCCCCCCCCCCCOc1c(Br)cc(C(=O)OC)cc1[N+](=O)[O-]
Out: 95%

In: Assign Activity to the following record: CCCCOCCCCCCCCCCCOc1ccc(C(=O)O)cc1
Out: 55%

In: Assign Activity to the following record: CCCCCCCCCCCCCCCCOc1c(C)cc(C(=O)O)cc1C
Out: 82%
